Where these numbers come from: patent US8883745B2

- Test system: IFN-γ
- measurementProtocol: IFN-γ levels in sera upon i.v. glycolipid administration to BALB/c mice (ELISA)
- Type: in vivo
- Set-up: unit not given here
- measurementSetup: BALB/c, serum, hour 6
metricName: IFN-γ levels, average

>  <structureAsSmiles>
CCCCCCCCCCCCCCCCC/C=C/CCCCCCCCC(=O)N[C@@H](CC[C@H]1O[C@H](CO)[C@H](O)[C@H](O)[C@H]1O)[C@H](O)[C@H](O)CCCCCCCCCCCCCC

>  <experimentalTarget>
IFN-γ

>  <metricName>
IFN-γ levels, average

>  <quantitativeReadout>
1172

$$$$
>  <structureAsSmiles>
CCCCCCCCCCCCCC[C@@H](O)[C@@H](O)[C@H](CC[C@H]1O[C@H](CO)[C@H](O)[C@H](O)[C@H]1O)NC(=O)CCCCCCCCCCCCCCCCCCCOCCCCCC

>  <experimentalTarget>
IFN-γ

>  <metricName>
IFN-γ levels, average

>  <quantitativeReadout>
1742

$$$$
>  <structureAsSmiles>
CCCCCCCCCCCCCCCCCC/C=C/CCCCCCCCC(=O)N[C@@H](/C=C/[C@H]1O[C@H](CO)[C@H](O)[C@H](O)[C@H]1O)[C@H](O)[C@H](O)CCCCCCCCCCCCCC

>  <experimentalTarget>
IFN-γ

>  <metricName>
IFN-γ levels, average

>  <quantitativeReadout>
3990.5

$$$$
